Listed below: binding signal values for each entry.
target: AGO2 L192P (Homo sapiens, UniProt Q9UKV8 1-859, L192P;S387D;S824A;S828D;S831D;S834A); assay: RNA Bind-n-Seq (nitrocellulose filter binding and sequencing); miR-122 guide loaded in AGO2; 60 min incubation; 30 mM Tris pH 8.0, 100 mM potassium acetate, 2 mM magnesium acetate, 0.5 mM TCEP, 0.005% NP-40, 0.01 mg/ml yeast tRNA; 3 nM AGO2-miR-122, 100 nM RNA library; 60; high values mean tight binding; settings: protein: recombinant; tags: His6 (N-terminal, pFastBac HTA)
Sequence (Q9UKV8 whole entry L192P/S387D/S824A/S828D/S831D/S834A): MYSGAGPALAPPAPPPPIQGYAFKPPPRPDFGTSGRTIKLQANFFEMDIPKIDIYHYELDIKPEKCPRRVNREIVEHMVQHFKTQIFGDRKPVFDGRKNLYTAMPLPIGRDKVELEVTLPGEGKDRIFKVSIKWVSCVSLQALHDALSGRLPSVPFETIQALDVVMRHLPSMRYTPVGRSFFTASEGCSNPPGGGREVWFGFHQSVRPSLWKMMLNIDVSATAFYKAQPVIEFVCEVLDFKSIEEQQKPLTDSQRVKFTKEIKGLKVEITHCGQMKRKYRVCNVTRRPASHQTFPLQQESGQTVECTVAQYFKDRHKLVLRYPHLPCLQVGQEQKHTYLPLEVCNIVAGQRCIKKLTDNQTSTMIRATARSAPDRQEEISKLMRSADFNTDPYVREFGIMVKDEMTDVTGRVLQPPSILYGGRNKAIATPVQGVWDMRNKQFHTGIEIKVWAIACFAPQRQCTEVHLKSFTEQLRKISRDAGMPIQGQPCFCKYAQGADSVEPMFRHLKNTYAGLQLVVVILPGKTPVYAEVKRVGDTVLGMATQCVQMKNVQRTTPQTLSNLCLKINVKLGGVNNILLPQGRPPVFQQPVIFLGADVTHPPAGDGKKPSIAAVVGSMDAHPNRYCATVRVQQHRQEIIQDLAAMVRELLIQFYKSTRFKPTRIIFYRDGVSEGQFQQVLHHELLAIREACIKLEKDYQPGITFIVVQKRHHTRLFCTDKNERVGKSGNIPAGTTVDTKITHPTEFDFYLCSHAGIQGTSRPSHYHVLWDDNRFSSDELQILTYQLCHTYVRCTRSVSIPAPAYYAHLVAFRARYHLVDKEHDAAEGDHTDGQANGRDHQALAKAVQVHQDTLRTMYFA

Known results for binders:
INSERT INTO measurements (binder, result_value) VALUES
  ('ACACCCTG (ssRNA, constant regions annealed to DNA blockers; guide miR-122 5'' phosphate) RNA 1: GAGUUCUACAGUCCGACGAUCCCAACACACCCUGCACCUGGAAUUCUCGGGUGCCAA RNA 2: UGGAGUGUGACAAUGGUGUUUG DNA 1: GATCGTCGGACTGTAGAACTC DNA 2: TTGGCACCCGAGAATTCCA', '0.472 fold enrichment over input'),
  ('ATATCTCG (ssRNA, constant regions annealed to DNA blockers; guide miR-122 5'' phosphate) RNA 1: GAGUUCUACAGUCCGACGAUCCCAACAUAUCUCGCACCUGGAAUUCUCGGGUGCCAA RNA 2: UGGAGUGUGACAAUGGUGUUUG DNA 1: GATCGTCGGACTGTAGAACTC DNA 2: TTGGCACCCGAGAATTCCA', '0.351 fold enrichment over input'),
  ('ACACCTTG (ssRNA, constant regions annealed to DNA blockers; guide miR-122 5'' phosphate) RNA 1: GAGUUCUACAGUCCGACGAUCCCAACACACCUUGCACCUGGAAUUCUCGGGUGCCAA RNA 2: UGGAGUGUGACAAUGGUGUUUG DNA 1: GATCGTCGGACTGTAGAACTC DNA 2: TTGGCACCCGAGAATTCCA', '0.422 fold enrichment over input');

I'd like to know its binding signal. The binder in question is ATACCTCG (ssRNA, constant regions annealed to DNA blockers; guide miR-122 5' phosphate) RNA 1: GAGUUCUACAGUCCGACGAUCCCAACAUACCUCGCACCUGGAAUUCUCGGGUGCCAA RNA 2: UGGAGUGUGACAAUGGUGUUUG DNA 1: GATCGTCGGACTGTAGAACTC DNA 2: TTGGCACCCGAGAATTCCA
0.339 fold enrichment over input

Do the same for ATACCCCA (ssRNA, constant regions annealed to DNA blockers; guide miR-122 5' phosphate) RNA 1: GAGUUCUACAGUCCGACGAUCCCAACAUACCCCACACCUGGAAUUCUCGGGUGCCAA RNA 2: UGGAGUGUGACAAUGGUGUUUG DNA 1: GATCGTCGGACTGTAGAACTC DNA 2: TTGGCACCCGAGAATTCCA please
0.5 fold enrichment over input

Do the same for GCGTCCTA (ssRNA, constant regions annealed to DNA blockers; guide miR-122 5' phosphate) RNA 1: GAGUUCUACAGUCCGACGAUCCCAACGCGUCCUACACCUGGAAUUCUCGGGUGCCAA RNA 2: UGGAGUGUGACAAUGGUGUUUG DNA 1: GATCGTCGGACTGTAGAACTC DNA 2: TTGGCACCCGAGAATTCCA please
0.489 fold enrichment over input

Do the same for ACGCTTTG (ssRNA, constant regions annealed to DNA blockers; guide miR-122 5' phosphate) RNA 1: GAGUUCUACAGUCCGACGAUCCCAACACGCUUUGCACCUGGAAUUCUCGGGUGCCAA RNA 2: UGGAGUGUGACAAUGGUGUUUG DNA 1: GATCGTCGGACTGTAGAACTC DNA 2: TTGGCACCCGAGAATTCCA please
0.36 fold enrichment over input

Do the same for ATATTCCG (ssRNA, constant regions annealed to DNA blockers; guide miR-122 5' phosphate) RNA 1: GAGUUCUACAGUCCGACGAUCCCAACAUAUUCCGCACCUGGAAUUCUCGGGUGCCAA RNA 2: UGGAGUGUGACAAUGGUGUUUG DNA 1: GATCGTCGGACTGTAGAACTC DNA 2: TTGGCACCCGAGAATTCCA please
0.389 fold enrichment over input
